- target-under-test: bromodomain of BRD9 (GST fusion) / acetylated histone H4 peptide (BET Bromodomain Ligand) (Homo sapiens, UniProt Q9H8M2)
- Construct: A GST fusion protein of the bromodomain of BRD9
- Sequence (Q9H8M2 136-240 limits assumed): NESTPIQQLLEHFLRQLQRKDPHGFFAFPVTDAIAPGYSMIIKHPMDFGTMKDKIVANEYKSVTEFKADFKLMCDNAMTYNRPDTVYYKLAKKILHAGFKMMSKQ
- test-method-notes: BRD9-H4 Tetraacetylated Peptide Inhibition AlphaScreen
value-kind: IC50 (nM)

Example entries and their recorded answers appear below.
CNc1cccc2c(=O)n(C)cc(-c3ccc(C)c(NS(C)(=O)=O)c3)c12 : 7830
Cc1ccc(-c2cn(C)c(=O)c(C)c2C)cc1N : 333
Cc1cc(-c2ccc(C(=O)c3cncnc3)cc2)cn(C)c1=O : 267
Cc1cc(-c2ccc(C(=O)N3CCNCC3)c(CS(C)(=O)=O)c2)cn(C)c1=O : 29
COc1cc(-c2cc(C)c(=O)n(C)c2)ccc1CN1CCN(C)CC1 : 3

I: Cc1cc(-c2cc(C)c(=O)n(C)c2)cc(C)c1C(=O)N1CCNCC1
II: Cc1ccc(-c2cn(C)c(=O)c3cccc(F)c23)cc1NS(C)(=O)=O
III: Cc1cc(-c2ccc(C(=O)N3CC(O)C3)cc2)cn(C)c1=O
IV: Cc1cc(-c2ccc(C(=O)c3c(Cl)ncnc3Cl)cc2)cn(C)c1=O
Hi! Can you put these in order of IC50, lowest number first? Returns: the labels listed in the requested order.
I, IV, III, II

A: Cc1cc(-c2cc(C)c(=O)n(C)c2)ccc1CN(C)C
B: Cc1cc(-c2ccc([C@@H](C)N)cc2)cn(C)c1=O
C: Cc1ccc(-c2cn(C)c(=O)c3cc(N)ccc23)cc1NS(C)(=O)=O
Please produce an ascending ranking of these compounds based on IC50. Respond with the label ranking, as requested.
A, B, C
(A: 47 nM, B: 334 nM, C: 2690 nM)

a: Cc1cc(-c2ccc(C(=O)N3CCCC3)cc2)cn(C)c1=O
b: CNc1cc(-c2ccc(C)c(NS(C)(=O)=O)c2)cn(C)c1=O
Lower value of IC50 belongs to which: a or b ? // caller expects the label of the chosen entry
a
(a: 496 nM, b: 2030 nM)

A: Cc1cc(-c2ccc(CN)cc2)cn(C)c1=O
B: Cc1cc(-c2ccc(CN3CCN(C)CC3)cc2)cn(C)c1=O
IC50 comparison. Which is larger, A or B ? To answer, give the label that identifies your chosen option.
A
(A: 130 nM, B: 78 nM)

A: Cc1cc(-c2ccc([C@H](C)N)cc2)cn(C)c1=O
B: CN1CCN(C(=O)c2ccc(-c3cn(C4CC4)c(=O)c4ccccc34)cc2)CC1
Between A and B , which one shows the smaller IC50 number? I would appreciate it if you answered with the label of your choice.
A
(A: 112 nM, B: 984 nM)

Where these numbers come from: patent US11319318B2
